Assay remarks: In vivo clearance in cynomolgus monkey relative to hepatic blood flow
Format: ADME, organism-based, Macaca fascicularis, Liver
Run conditions: read-out: CLH
Measurement type: clearance (mL/min/kg)

Mol	Measurement type	Unit symbol	Endpoint result
COC(=O)N[C@H](C(=O)N1CCC[C@H]1c1ncc(-c2ccc(-c3ccc(-c4cnc([C@@H]5CC6(CN5C(=O)[C@@H](NC(=O)OC)C(C)C)OCCO6)[nH]4)cc3)cc2)[nH]1)C(C)C	clearance	mL/min/kg	9

---

Assay remarks: Half life in human hepatocytes
Assay type: ADME, cell-based, Hepatocyte

Mol	half-life
COC(=O)N[C@H](C(=O)N1CCC[C@H]1c1ncc(-c2ccc(-c3ccc(-c4cnc([C@@H]5CC6(CN5C(=O)[C@@H](NC(=O)OC)C(C)C)OCCO6)[nH]4)cc3)cc2)[nH]1)C(C)C	≥ 6 h

---

System: Hepatitis C virus
Assay remarks: Antiviral activity against Hepatitis C virus genotype 1b harboring NS5A L28V mutant gene in Huh-luc/neo-ET replicon cells after 48 hrs by transient replicon mutant-based luciferase assay
Type: functional, organism-based, Hepacivirus hominis

Mol	EC50 / pM
COC(=O)N[C@H](C(=O)N1CC2(CCOCC2)C[C@H]1c1ncc(-c2ccc(-c3ccc(-c4cnc([C@@H]5CC6(CCOCC6)CN5C(=O)[C@@H](NC(=O)OC)C(C)C)[nH]4)cc3)cc2)[nH]1)C(C)C	6.31
COC(=O)N[C@H](C(=O)N1CC2(C[C@H]1c1ncc(-c3ccc(-c4ccc(-c5cnc([C@@H]6CC7(CN6C(=O)[C@@H](NC(=O)OC)C(C)C)OCCO7)[nH]5)cc4)cc3)[nH]1)OCCO2)C(C)C	12.6
COC(=O)N[C@H](C(=O)N1CCC[C@H]1c1ncc(-c2ccc(-c3ccc(-c4cnc([C@@H]5CC6(CCC(F)(F)CC6)CN5C(=O)[C@@H](NC(=O)OC)C(C)C)[nH]4)cc3)cc2)[nH]1)C(C)C	1.58
COC(=O)N[C@H](C(=O)N1CCC[C@H]1c1ncc(-c2ccc(-c3ccc(-c4cnc([C@@H]5CC6(CN5C(=O)[C@@H](NC(=O)OC)C(C)C)OCCO6)[nH]4)cc3)cc2)[nH]1)C(C)C	3.16
COC(=O)N[C@H](C(=O)N1CCC[C@H]1c1ncc(-c2ccc(-c3ccc(-c4cnc([C@@H]5CCCN5C(=O)[C@@H](NC(=O)OC)C(C)C)[nH]4)cc3)cc2)[nH]1)C(C)C	3.98

---

System: Hepatitis C virus
Assay remarks: Antiviral activity against Hepatitis C virus genotype 1b in Huh-luc/neo-ET replicon cells after 48 hrs by replicon-based luciferase assay
Type: functional, organism-based, Hepacivirus hominis
The label satisfied is reserved for EC50 strictly under 10 pM; not satisfied covers values equal to or above it.

Molecule	Qualitative label
COC(=O)N[C@H](C(=O)N1CCC[C@H]1c1ncc(-c2ccc(-c3ccc(-c4cnc([C@@H]5CC6(CN5C(=O)[C@@H](NC(=O)OC)C(C)C)OCCO6)[nH]4)cc3)cc2)[nH]1)C(C)C	satisfied
COC(=O)N[C@H](C(=O)N1CCC[C@H]1c1ncc(-c2ccc(-c3ccc(-c4cnc(C5CCC6(CCOCC6)N5C(C)=O)[nH]4)cc3)cc2)[nH]1)C(C)C (stereo not given in full)	not satisfied
CC[C@H](NC(=O)OC)C(=O)N1CC2(C[C@H]1c1ncc(-c3ccc(-c4ccc(-c5cnc([C@@H]6CCCN6C(=O)[C@@H](NC(=O)OC)C(C)C)[nH]5)cc4)cc3)[nH]1)SCCS2	satisfied
COC(=O)N[C@H](C(=O)N1CC2(CCN(C(C)=O)CC2)CC1c1ncc(-c2ccc(-c3ccc(-c4cnc([C@@H]5CCCN5C(=O)[C@@H](NC(=O)OC)C(C)C)[nH]4)cc3)cc2)[nH]1)C(C)C (mixture of isomers)	not satisfied
